Tested on: ABL1 (human), P00519 [E255K]
Sequence (P00519 whole entry E255K, looked up): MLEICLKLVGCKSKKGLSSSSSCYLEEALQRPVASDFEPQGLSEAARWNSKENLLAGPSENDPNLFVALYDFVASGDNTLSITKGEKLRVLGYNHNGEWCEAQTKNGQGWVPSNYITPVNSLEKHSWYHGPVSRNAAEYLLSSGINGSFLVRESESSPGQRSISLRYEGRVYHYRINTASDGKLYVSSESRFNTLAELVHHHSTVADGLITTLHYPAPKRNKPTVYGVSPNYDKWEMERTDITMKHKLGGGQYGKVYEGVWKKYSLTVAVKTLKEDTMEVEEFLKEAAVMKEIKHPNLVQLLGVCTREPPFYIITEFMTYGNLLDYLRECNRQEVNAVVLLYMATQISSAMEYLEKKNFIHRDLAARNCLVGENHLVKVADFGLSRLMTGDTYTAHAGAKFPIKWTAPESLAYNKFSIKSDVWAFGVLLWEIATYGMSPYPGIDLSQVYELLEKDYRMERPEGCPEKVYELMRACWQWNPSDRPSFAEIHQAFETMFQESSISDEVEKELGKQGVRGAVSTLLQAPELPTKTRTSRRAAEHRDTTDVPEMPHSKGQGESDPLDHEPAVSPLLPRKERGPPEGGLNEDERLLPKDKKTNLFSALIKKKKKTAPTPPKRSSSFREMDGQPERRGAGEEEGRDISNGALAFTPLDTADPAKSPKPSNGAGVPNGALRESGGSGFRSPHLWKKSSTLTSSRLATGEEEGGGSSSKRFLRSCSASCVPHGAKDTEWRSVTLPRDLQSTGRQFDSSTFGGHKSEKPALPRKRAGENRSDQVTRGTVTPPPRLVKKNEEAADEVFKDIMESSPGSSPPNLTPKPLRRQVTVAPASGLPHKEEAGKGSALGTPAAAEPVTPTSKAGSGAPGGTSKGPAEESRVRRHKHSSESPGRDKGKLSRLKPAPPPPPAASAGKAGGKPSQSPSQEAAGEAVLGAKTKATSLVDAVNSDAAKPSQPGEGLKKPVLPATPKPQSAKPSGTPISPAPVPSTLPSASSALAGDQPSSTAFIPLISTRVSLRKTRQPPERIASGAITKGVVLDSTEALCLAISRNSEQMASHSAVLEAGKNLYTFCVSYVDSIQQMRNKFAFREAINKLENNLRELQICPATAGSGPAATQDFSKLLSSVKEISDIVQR
protocol_summary: KINOMEscan competition binding
study_conditions: compound 10.0 µM
kinase still bound, per cent of control values, listed per item
Please respond with the number in % and leave the unit unwritten.

COc1cc(N2CCN(C)CC2)ccc1Nc1nc(N)c(C(=O)c2c(Cl)cccc2Cl)s1
90

Lab note: measured kinase still bound, per cent of control of "O=C1Nc2ccc(I)cc2/C1=C/c1cc(Br)c(O)c(Br)c1" was 54

Lab note: measured kinase still bound, per cent of control of "COc1cc(N2CCN(C)CC2)ccc1Nc1ncc2c(n1)N(C)c1ccccc1C(=O)N2C" was 100

Lab note: measured kinase still bound, per cent of control of "CCOc1cc2ncc(C#N)c(Nc3ccc(OCc4ccccn4)c(Cl)c3)c2cc1NC(=O)/C=C/CN(C)C" was 100

Lab note: measured kinase still bound, per cent of control of "CCc1nc(-c2cccc(C)c2)c(-c2ccnc(NC(=O)c3ccccc3)c2)s1" was 24

Lab note: measured kinase still bound, per cent of control of "C=CC(=O)Nc1ccc(CN(C(=O)Nc2c(Cl)c(OC)cc(OC)c2Cl)c2cc(Nc3ccc(N4CCN(C)CC4)cc3)ncn2)cc1" was 100

Lab note: measured kinase still bound, per cent of control of "C[C@@H](Oc1cc(-n2cnc3ccc(CN4CCN(C)CC4)cc32)sc1C(N)=O)c1ccccc1C(F)(F)F" was 55

Lab note: measured kinase still bound, per cent of control of "Cc1cn(-c2cc(C(=O)Nc3ccc(C)c(NC(=O)c4ccno4)c3)cc(C(F)(F)F)c2)cn1" was 18

Lab note: measured kinase still bound, per cent of control of "C=CC(=O)Nc1ccc(C(=O)c2sc(Nc3ccc(N4CCN(C)CC4)cc3OC)nc2N)cc1" was 81

Recorded values, source the kinase profiling compilation of Christmann-Franck et al. (2016).
